B1: library; numbered along this chain (parent)
chain: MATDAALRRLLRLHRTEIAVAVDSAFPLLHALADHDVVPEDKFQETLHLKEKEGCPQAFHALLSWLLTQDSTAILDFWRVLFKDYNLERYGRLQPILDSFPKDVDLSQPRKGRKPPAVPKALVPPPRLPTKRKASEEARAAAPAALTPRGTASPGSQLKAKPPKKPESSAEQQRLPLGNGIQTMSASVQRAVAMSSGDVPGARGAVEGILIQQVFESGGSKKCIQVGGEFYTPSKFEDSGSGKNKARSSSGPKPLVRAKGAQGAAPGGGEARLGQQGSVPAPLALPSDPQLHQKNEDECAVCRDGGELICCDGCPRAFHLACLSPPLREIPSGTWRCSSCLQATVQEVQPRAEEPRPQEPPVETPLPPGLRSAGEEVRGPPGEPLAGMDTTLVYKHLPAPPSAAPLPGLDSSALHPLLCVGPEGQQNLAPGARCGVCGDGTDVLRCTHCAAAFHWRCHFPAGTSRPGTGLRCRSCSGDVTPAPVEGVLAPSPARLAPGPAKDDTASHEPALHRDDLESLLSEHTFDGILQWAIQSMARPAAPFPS

- Variants of: B1
- Procedure Summary: AIRE transcriptional activation functional score (insulin promoter-GFP; nonsense median 0, synonymous median 1) (normalised score); higher = higher AIRE activity (more reporter activation)
- Experimental Parameters: with insulin promoter-GFP reporter in HEK293
Classification scheme (AIRE transcriptional activation functional score): low bin: < 0.3; mid bin: ≥ 0.3 and < 1; high bin: ≥ 1

Please review the following examples before continuing.
{"Mutation Notation": "A121M", "Class Name": "high bin"}
{"Mutation Notation": "N86S", "Class Name": "low bin"}
{"Mutation Notation": "V348I", "Class Name": "high bin"}
{"Mutation Notation": "G91C", "Class Name": "low bin"}
{"Mutation Notation": "Q225N", "Class Name": "mid bin"}
{"Mutation Notation": "S545C", "Class Name": "high bin"}

Place this variant in its band: `G467V`
high bin

Which class holds `L128D` ?
low bin

Class label required: `C472V`
low bin

Which category fits this record: `P56L`
low bin

Exam item: assign `G54I` to the correct category.
mid bin
